# target-or-system: HLA-B*51:01
# protocol: IEDB peptide-MHC binding, purified MHC/competitive/radioactivity; filed as Kd, often an IC50 or EC50 that approximates it; bounds were set here for any values at or beyond the usual limits of such assays
# condition-notes: source organism: Dengue virus 1 Brazil/97-11/1997
assay-endpoint: Kd (nM)
API: value field is a number in nM; no unit string.

Need Kd, item FPGKTVWFV
6360

Need Kd, item LAHAIGTSI
157

Need Kd, item LAGPMPVTV
870

Need Kd, item MASVEPHWI
1790

* * *

# target-or-system: HLA-A*32:15
# protocol: IEDB peptide-MHC binding, purified MHC/competitive/fluorescence; filed as Kd, often an IC50 or EC50 that approximates it; bounds were set here for any values at or beyond the usual limits of such assays
# condition-notes: source organism: Vaccinia virus WR
assay-endpoint: pKd
A value of pKd is the negative decimal logarithm of a concentration given in moles per litre.

Need pKd, item MPAYIRNTL
7.20

Data origin: the Immune Epitope Database (IEDB)
